Entries and their EC50 values follow.
# system_tested: UniProtKB G5EF15
# Sequence (G5EF15 whole entry, the tested form may be a part): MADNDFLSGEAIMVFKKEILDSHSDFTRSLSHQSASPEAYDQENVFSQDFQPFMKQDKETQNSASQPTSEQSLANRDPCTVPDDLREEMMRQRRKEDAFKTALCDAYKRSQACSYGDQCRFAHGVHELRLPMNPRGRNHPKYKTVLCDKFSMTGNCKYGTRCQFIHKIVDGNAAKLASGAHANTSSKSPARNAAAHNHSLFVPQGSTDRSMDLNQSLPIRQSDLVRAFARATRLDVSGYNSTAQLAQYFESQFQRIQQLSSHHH
# measurement_notes: disruptors of C. elegans POS-1 RNA interaction – biochemical, fluorescence polarization, dose response (AID 1964);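 also: purified POS-1 fused to maltose binding protein made in E. coli; potency of compounds blocking POS-1 binding to fluorescent RNA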
Activity calls are given as the source filed them.

Below: 5 compounds and their reported EC50.
> print(dat)
                                   compound  recorded.metric                 result
1  COc1ccc(S(=O)(=O)NNC(=O)C(=O)NNc2ccccn2)cc1             EC50  > 300 µM (not active)
2  CCN1C(=O)C(=Cc2ccc(N3CCOCC3)o2)C(=O)N(CC)C1=S             EC50  > 300 µM (not active)
3  COc1ccc(/C(O)=C/C=N/c2ccc([N+](=O)[O-])cc2C)c(OC)c1             EC50  > 300 µM (not active)
4  O=C1N=C(N2CCOCC2)S/C1=C\c1ccc(-c2ccccc2Cl)o1             EC50  > 300 µM (not active)
5  Cc1cc(CC(C)C)n(-c2nc3ccccc3c(=O)n2OCc2ccccc2)n1             EC50  > 300 µM (not active)

Data request: Identify the measured EC50 of OC(C#Cc1ccccn1)c1cccs1 (centres undefined) for UniProtKB G5EF15.
Data returned: 33.4 µM (active)

Data request: Moving on to the next compound: N#CC(C#N)=Cc1ccc(N2CCOCC2)cc1
Data returned: > 300 µM (inconclusive)

Data request: Moving on to the next compound: COC(=O)c1cc(-n2cccc2)ccc1N1CCOCC1
Data returned: > 300 µM (not active)

Data request: Moving on to the next compound: Cc1ccc2sc(NNC(=O)c3cc(=O)c4ccccc4o3)nc2c1C
Data returned: > 300 µM (not active)

----------
# system_tested: Heat shock factor protein 1 (Mus musculus)
# Sequence (P38532 whole entry): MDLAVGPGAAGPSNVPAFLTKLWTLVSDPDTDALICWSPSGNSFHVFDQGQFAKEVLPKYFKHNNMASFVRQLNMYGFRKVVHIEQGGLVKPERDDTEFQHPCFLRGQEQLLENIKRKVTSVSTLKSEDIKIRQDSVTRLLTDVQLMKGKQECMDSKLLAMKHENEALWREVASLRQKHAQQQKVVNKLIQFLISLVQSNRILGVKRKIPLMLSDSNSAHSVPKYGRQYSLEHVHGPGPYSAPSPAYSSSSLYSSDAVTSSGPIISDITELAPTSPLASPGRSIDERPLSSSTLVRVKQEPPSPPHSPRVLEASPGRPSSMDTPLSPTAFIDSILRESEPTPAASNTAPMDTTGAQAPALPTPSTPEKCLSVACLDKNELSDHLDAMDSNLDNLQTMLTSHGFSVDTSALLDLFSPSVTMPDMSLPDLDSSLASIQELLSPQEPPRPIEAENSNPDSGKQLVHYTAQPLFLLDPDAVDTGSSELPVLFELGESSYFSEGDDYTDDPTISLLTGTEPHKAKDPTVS
# measurement_notes: decrease of HSF1-responsive luciferase luminescence – cell-based, NIH3T3, dose retest, confirmation (AID 2382);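 also: NIH3T3 fibroblasts with HSF1-driven luciferase reporter stressed by proteasome inhibitor MG132; luminescence from HSF1-driven luciferase expression after 8 hours of MG132 stress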
# Format: functional
Calls of active or inactive are those of the source.
Entries and their EC50 values follow.

Below: 4 compounds and their reported EC50.
> print(dat)
                                   compound  recorded.metric                 result
1  NC1=NC(c2c[nH]nc2-c2cccc(F)c2)n2c(nc3ccccc32)N1 (stereo not drawn)             EC50       27.5 µM (active)
2  CC1CCCN(c2ncnc3c2cnn3-c2ccc(Cl)cc2)C1 (stereo not drawn)             EC50     < 0.16 µM (active)
3           O=C(NN=C1CCCCCCCCCCC1)c1ccccc1F             EC50  > 195 µM (not active)
4  Cc1ccc(CN2CC(C(=O)Nc3ccc(C)cn3)CC2=O)cc1 (stereo not drawn)             EC50  > 195 µM (not active)

Data request: // EC50 lookup, key: O=C(CCl)N1CCCC1c1ccc2c(c1)OCCO2 (stereo not drawn)
Data returned: 1.14 µM (active)

Data request: Moving on to the next compound: COc1ccc(/C=N/NC(=O)c2cc(-c3cccn3C)[nH]n2)cc1OC
Data returned: > 195 µM (not active)

Data request: Moving on to the next compound: O=C(CCl)N1N=C(c2cccs2)CC1c1ccco1 (stereo not drawn)
Data returned: 6.29 µM (active)

Data request: Moving on to the next compound: Oc1ccc(C2=NN(c3ccccc3)C(c3ccc(F)cc3)C2)cc1 (stereo not drawn)
Data returned: > 195 µM (not active)

Data request: Moving on to the next compound: COc1ccc(NC(S)=Nc2ccc(Oc3ccccc3)cc2)cc1
Data returned: > 195 µM (not active)

Data request: Moving on to the next compound: O=C(CN1C(=O)c2ccccc2S1(=O)=O)c1ccc2c(c1)OCCCO2
Data returned: < 0.16 µM (active)

Data request: Moving on to the next compound: COc1ccc(CCNC(=O)CN2CCN(Cc3ccccc3F)C2=O)cc1OC
Data returned: > 195 µM (not active)

Data request: Moving on to the next compound: CC(=O)N(/N=C1\Sc2ccccc2C1=O)c1ccc(C)cc1C
Data returned: < 0.16 µM (active)

Data request: Moving on to the next compound: Cn1cc(CCNC(=O)CC2C(=O)NCCN2Cc2cccc(Oc3ccccc3)c2)cn1 (stereo not drawn)
Data returned: > 195 µM (not active)

----------
Cytochrome P450 3A4 (Homo sapiens, UniProt P08684): recorded AC50 for assorted compounds;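 also: CYP3A4 tested as one member of a cytochrome P450 panel screen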
Sequence (P08684 whole entry): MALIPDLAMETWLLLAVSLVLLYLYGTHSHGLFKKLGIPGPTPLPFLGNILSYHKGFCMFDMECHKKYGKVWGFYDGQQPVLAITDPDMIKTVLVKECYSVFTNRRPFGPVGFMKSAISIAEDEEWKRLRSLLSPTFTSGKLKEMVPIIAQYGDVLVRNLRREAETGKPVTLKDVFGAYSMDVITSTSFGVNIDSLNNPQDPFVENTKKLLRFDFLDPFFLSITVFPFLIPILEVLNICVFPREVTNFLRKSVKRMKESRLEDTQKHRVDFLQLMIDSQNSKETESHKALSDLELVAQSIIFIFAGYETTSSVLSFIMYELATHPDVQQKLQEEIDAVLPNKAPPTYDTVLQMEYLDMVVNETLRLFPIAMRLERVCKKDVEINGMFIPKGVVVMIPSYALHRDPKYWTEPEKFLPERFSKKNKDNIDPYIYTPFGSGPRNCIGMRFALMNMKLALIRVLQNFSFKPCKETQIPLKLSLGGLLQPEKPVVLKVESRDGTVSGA

Below: 2 compounds and their reported AC50.
> print(dat)
                                   compound                  result
1  O=C(Nc1cccc(-c2nc3ncccc3o2)c1)c1sc2ccccc2c1Cl  3.98 µM (inconclusive)
2  COc1cc2c(cc1OC)C(C(=O)N1CCOCC1)C(c1cccs1)N(C)C2=O (centres undefined)  25.1 µM (inconclusive)

Data request: // AC50 lookup, key: O=C(Nc1ccccc1)/C(=C\c1ccncc1)NC(=O)c1ccccc1
Data returned: 0.794 µM (inconclusive)

Data request: Moving on to the next compound: Cc1ccc(C(=O)O/N=C\c2ccc(N3CCCCC3)c([N+](=O)[O-])c2)cc1
Data returned: 22.4 µM (inconclusive)

----------
# system_tested: Cytochrome P450 2D6 (Homo sapiens, UniProt P10635);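 also: CYP2D6 member of a cytochrome P450 panel assay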
# Sequence (P10635 whole entry): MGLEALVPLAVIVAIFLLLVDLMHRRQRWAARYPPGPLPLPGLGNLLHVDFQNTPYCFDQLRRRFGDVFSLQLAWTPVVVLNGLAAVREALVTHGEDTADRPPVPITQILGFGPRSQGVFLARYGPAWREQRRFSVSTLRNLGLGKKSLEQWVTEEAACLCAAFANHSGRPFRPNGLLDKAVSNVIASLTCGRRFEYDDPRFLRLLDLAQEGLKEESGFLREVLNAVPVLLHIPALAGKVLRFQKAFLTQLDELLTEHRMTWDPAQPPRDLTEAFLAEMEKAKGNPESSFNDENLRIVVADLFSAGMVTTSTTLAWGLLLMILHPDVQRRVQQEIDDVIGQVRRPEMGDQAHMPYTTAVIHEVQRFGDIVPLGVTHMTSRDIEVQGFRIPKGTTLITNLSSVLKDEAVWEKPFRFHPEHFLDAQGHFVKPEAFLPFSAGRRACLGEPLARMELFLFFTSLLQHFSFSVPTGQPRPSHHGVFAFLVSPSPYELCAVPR
recorded_metric: AC50

> print(dat)
                               given.smiles                             system.tested  recorded.metric        result
1  O=C(Cn1cnc2ccccc2c1=O)NCCC(=O)Nc1ccc2c(c1)OCCO2  Cytochrome P450 2D6 (Homo sapiens, UniProt P10635)             AC50  inconclusive
2  Cc1ccc(C(=O)O/N=C\c2ccc(N3CCCCC3)c([N+](=O)[O-])c2)cc1  Cytochrome P450 2D6 (Homo sapiens, UniProt P10635)             AC50  inconclusive
3  CO[C@@H]1COC(=O)CCC[C@@H](C)[C@H](OC)COC(=O)CCC[C@H]1C  Cytochrome P450 2D6 (Homo sapiens, UniProt P10635)             AC50  inconclusive

----------
# system_tested: Endoribonuclease toxin MazF (Escherichia coli K-12)
# Sequence (P0AE70 whole entry): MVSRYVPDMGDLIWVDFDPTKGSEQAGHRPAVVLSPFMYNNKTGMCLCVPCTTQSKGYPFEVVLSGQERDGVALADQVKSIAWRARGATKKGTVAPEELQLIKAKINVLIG
# measurement_notes: activation of MazEF endoribonuclease cleavage – biochemical, fluorescence, single-stranded RNA substrate, uHTS hits, dose response (AID 588481)
# Format: functional
Activity calls are given as the source filed them.
Result category, one only: active, inactive

Reference set (4 entries):
> print(dat)
                               given.smiles                             system.tested  class.assignment
1  Cc1cc(-c2ccccc2)c2c3c(c(-c4ccccc4)n2n1)c(=O)n(C)c(=O)n3C  Endoribonuclease toxin MazF (Escherichia coli K-12)          inactive
2   CCn1c(/C=C/c2ccc(O)c(O)c2)nc2ccccc2c1=O  Endoribonuclease toxin MazF (Escherichia coli K-12)          inactive
3  CCCCC(=O)Nc1ccc(C(=O)Nc2ccc(OC)cc2[N+](=O)[O-])cc1  Endoribonuclease toxin MazF (Escherichia coli K-12)          inactive
4  COC(=O)c1c(/N=C/N(C)C)sc2c1CCN(c1ncc(C(F)(F)F)cc1Cl)C2  Endoribonuclease toxin MazF (Escherichia coli K-12)          inactive

Now examine the next entry.
Data request: State the result this test recorded for Nc1c(C(=O)c2cccs2)sc2nsc(SCCN3CCCCC3)c12 .
Data returned: active

----------
Entries and their EC50 values follow.
# System: BJ
# measurement_notes: cells
# Format: functional, cell-based
# condition_set: Homo sapiens
Active and inactive are the calls of the source.

Below: 3 compounds and their reported EC50.
> print(dat)
                               given.smiles  system.tested  recorded.metric                   result
1           Nc1nc(CCl)nc(Nc2ccc3ccccc3c2)n1             BJ             EC50  0.717 µM (inconclusive)
2  CCSc1nc2ccccc2n1C(=O)/C=C\c1ccc(OC)c(OC)c1             BJ             EC50         8.04 µM (active)
3  Cc1ccc2nc(O)c(CN(c3cccc(C)c3C)S(=O)(=O)c3ccccc3)cc2c1             BJ             EC50         46.6 µM (active)

# ---- query compound ----
Data request: // EC50 lookup, key: Cc1ccc(-c2cc(-c3ccccc3)cc(-c3ccccc3)[n+]2-c2ccccc2)cc1.[O-][Cl+3]([O-])([O-])[O-]
Data returned: 7.64 µM (active)
